System: recombinant full-length human prolyl endopeptidase (PREP) (Homo sapiens)
Construct: To recombinant full-length human prolyl endopeptidase (PREP, R&D-Systems, 4308-SE)
Experiment summary: Biochemical human prolyl endopeptidase (PREP) assay with fluorescently labelled substrate
Condition parameters: substrate Z-Gly-Pro-AMC 50 μM, 32° C., 60 min; some as mean values from multiple independent determinations
Protocol: B-1 Biochemical Human Prolyl Endopeptidase (PREP) Assay for Identification of Inhibitors of PREP Activity Using a Fluorescently Labelled Substrate Principle of the Assay: The enzymatic conversion of the fluorescent peptide substrate was observed on the basis of the measurement of the fluorescence intensity. The enzyme activity was determined by the ascertaining of the initial slope in the increase in fluorescence. […]
Listed next: entries and their corresponding log10(IC50).
All values: log10 IC50 [nM].

Returns the measured log10(IC50) for the input compound. Input: CC(C)(C)OC(=O)c1ccc(Cn2nc3n(c2=O)C(C(=O)N2CCCC2)CCC3)cc1 (racemic)
1.38

O=C(C1CC(C(F)(F)F)Cc2nn(Cc3cncc(Cl)c3)c(=O)n21)N1C[C@@H](F)[C@@H](F)C1 (single isomer, unassigned) [Example 268] , same question.
1.36

Please give the result for COc1ccc(Cn2nc3n(c2=O)C(C(=O)N2CCCC2)CCC3)cn1 (racemic) too.
0.48

Would you kindly repeat that for O=C([C@@H]1CCCc2nn(Cc3nnc(C(F)(F)F)o3)c(=O)n21)N1CCC(F)(F)C1 ?
1.80

What do we get for O=C(C1C(C(F)(F)F)CCc2nn(Cc3ncc(Cl)cc3Cl)c(=O)n21)N1CC[C@H](F)C1 (single isomer, unassigned) [Example 283] ?
0.79

Entry O=C([C@@H]1CCCc2nn(Cc3ccc(Br)cc3F)c(=O)n21)N1CC[C@H](F)C1 please
-0.70

What would you report for Cc1ccc(Cn2nc3n(c2=O)C(C(=O)N2C[C@H]4C[C@H]4C2)CCC3)cc1 (mixture of isomers) ?
1.45

* * *

System: recombinant full-length human prolyl endopeptidase (PREP) (Homo sapiens, UniProt P48147)
Construct: To recombinant full-length human prolyl endopeptidase (PREP, R&D-Systems, 4308-SE)
Sequence (P48147 whole entry): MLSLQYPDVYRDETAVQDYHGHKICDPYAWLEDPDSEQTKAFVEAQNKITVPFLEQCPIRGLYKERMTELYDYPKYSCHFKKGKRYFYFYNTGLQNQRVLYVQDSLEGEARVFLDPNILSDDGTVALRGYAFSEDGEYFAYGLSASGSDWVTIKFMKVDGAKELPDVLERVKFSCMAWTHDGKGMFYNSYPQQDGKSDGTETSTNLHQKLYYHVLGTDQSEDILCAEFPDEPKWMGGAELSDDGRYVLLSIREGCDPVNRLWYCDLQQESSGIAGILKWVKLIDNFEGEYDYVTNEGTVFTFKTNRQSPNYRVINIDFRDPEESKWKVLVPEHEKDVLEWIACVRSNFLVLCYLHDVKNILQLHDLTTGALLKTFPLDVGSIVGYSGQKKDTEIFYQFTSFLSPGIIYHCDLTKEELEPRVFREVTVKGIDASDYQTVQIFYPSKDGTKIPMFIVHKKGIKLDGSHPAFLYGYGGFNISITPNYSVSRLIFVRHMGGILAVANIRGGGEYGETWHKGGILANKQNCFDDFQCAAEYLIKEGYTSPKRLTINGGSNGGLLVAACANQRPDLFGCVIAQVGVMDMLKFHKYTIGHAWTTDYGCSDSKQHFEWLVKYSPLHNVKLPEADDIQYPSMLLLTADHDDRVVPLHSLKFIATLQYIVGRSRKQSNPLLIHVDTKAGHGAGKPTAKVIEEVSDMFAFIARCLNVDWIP
Experiment summary: Biochemical human prolyl endopeptidase (PREP) assay with fluorescently labelled substrate
Condition parameters: substrate Z-Gly-Pro-AMC 50 μM, 32° C., 60 min; some as mean values from multiple independent determinations
Assay readout: pIC50
Answer as the number alone; pIC50 is minus log10 of concentration in mol/L.

Below: 3 compounds and their reported pIC50.
* O=C(C1CCCc2nn(Cc3ncc(C(F)(F)F)cc3Cl)c(=O)n21)N1CC(O)C1 (racemic) | 6.72
* O=C(C1C(C(F)(F)F)CCc2nn(Cc3ccnc(C(F)(F)F)c3F)c(=O)n21)N1CC[C@H](F)C1 (single isomer, unassigned) [Example 281] | 8.66
* O=C([C@@H]1CCCc2nn(CC3(c4cccc(Cl)n4)CC3)c(=O)n21)N1CC(F)C1 | 8.42

Entry O=C(C1CCCc2nn(Cc3ccc4c(c3)CCC4)c(=O)n21)N1CCCC1 (racemic) has what pIC50?
9.15

And what about the compound Cc1ccc(Cn2nc3n(c2=O)C(C(=O)N2CCCC2)CC(C)C3)cc1 (racemic) ?
9.25

Same question, O=C(C1CCc2nn(Cc3ccnc(C(F)(F)F)c3F)c(=O)n21)N1CC[C@H](F)C1 (single isomer, unassigned) [Example 180] this time
8.49

Also check O=C(C1C(C(F)(F)F)CCc2nn(Cc3ccnc(C(F)(F)F)c3F)c(=O)n21)N1CC[C@H](F)C1 (mixture of isomers) [Example 280]
8.42

Cool, now O=C([C@@H]1CCC(O)c2nn(Cc3ccc(Cl)cn3)c(=O)n21)N1CC[C@H](F)C1 (mixture of isomers)
9.37

Also O=C(C1CCCc2nn(Cc3cc(F)c(F)cc3F)c(=O)n21)N1CCCC1 (racemic) ?
8.89

O=C(C1CCCc2nn(Cc3cc(C(F)(F)F)c(Cl)cn3)c(=O)n21)N1CCCC1 (single isomer, unassigned) , same question.
8.68

Again, but for COc1ccc(Cn2nc3n(c2=O)C(C(=O)N2CCCC2)CCC3)cc1 (racemic)
8.44

Try O=C([C@@H]1CCC(O)c2nn(Cc3cncc(Cl)c3)c(=O)n21)N1CC[C@H](F)C1 (mixture of isomers) next.
9.31

Again, but for O=C([C@@H]1CCC(F)(F)c2nn(Cc3ncc(Cl)cc3F)c(=O)n21)N1CC[C@H](F)C1
9.20

And what about the compound Cc1ccc(Cn2nc3n(c2=O)[C@H](C(=O)N2CCC[C@H]2C)CCC3)cc1 ?
6.85
